Source listed as patent US11691971B2.

I'd appreciate it if you could supply IC50 values for the items below.
target: catalytic domain (JH1, amino acids 826-1132) of human JAK2 (Homo sapiens (Human), UniProt O60674); experiment: JAK2 LanthaScreen JH1 Binding Assay; conditions: JAK2 JH1 1.5 nM, 50 nM tracer, 2 hours at 25° C.; read-out: JH1BIND IC50
Sequence (O60674 826-1132): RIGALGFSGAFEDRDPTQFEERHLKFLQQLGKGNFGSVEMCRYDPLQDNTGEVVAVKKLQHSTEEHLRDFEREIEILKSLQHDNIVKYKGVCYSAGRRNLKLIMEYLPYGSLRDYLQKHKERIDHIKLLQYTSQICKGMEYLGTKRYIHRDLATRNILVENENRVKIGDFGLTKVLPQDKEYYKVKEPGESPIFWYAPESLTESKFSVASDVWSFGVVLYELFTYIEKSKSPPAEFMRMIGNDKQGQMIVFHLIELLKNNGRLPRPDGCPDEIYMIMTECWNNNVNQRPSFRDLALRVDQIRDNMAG
Counter-ions that a name gives are not always drawn.

[ask] Return reported IC50; argument: O=C(Nc1cc(Nc2cccc(C(F)(F)F)c2-c2cn[nH]c2)c2c(=O)[nH]ccc2n1)C1CC1 [Example 18, Trifluoroacetic Acid Salt]
[reply] > 10 µM

[ask] And the next one, COc1c(Nc2cc(NC(=O)C3CC3)nc3cc[nH]c(=O)c23)cccc1-c1cnn(C2CCCC2)c1 [Example 3, Trifluoroacetic Acid Salt] ?
[reply] > 10 µM

[ask] And the next one, Cc1[nH]ncc1-c1c(Cl)cccc1Nc1cc(NC(=O)C2CC2)nc2cc[nH]c(=O)c12 [Example 17, Trifluoroacetic Acid Salt] ?
[reply] 1 to 10 µM

[ask] And the next one, COc1ccccc1Nc1cc(NC(=O)C2CC2)nc2cc[nH]c(=O)c12 [Example 21] ?
[reply] 1 to 10 µM

[ask] And the next one, O=C(Nc1cc(Nc2cccc(Cl)c2-c2cn[nH]c2)c2c(=O)[nH]ccc2n1)C1CC1 [Example 16, Trifluoroacetic Acid Salt] ?
[reply] 1 to 10 µM

[ask] And the next one, CCn1ccc2cccc(Nc3cc(NC(=O)C4CC4)nc4cc[nH]c(=O)c34)c21 [Example 9, Trifluoroacetic Acid Salt] ?
[reply] > 10 µM

[ask] And the next one, COc1c(Nc2cc(NC(=O)C3CC3)nc3cc[nH]c(=O)c23)cccc1-c1cnn(C(C)C(N)=O)c1 (stereo not shown) [Example 8, Trifluoroacetic Acid Salt] ?
[reply] 1 to 10 µM

[ask] And the next one, CNc1ccccc1Nc1cc(NC(=O)C2CC2)nc2cc[nH]c(=O)c12 [Example 22, Trifluoroacetic Acid Salt] ?
[reply] > 10 µM

[ask] And the next one, CS(=O)(=O)c1c(Nc2cc(NC(=O)C3CC3)nc3cc[nH]c(=O)c23)cccc1-c1cnn(C2CCOCC2)c1 [Example 13, Trifluoroacetic Acid Salt] ?
[reply] > 10 µM

[ask] And the next one, COc1c(Nc2cc(NC(=O)C3CC3)nc3ccn(C)c(=O)c23)cccc1-c1cnc(C2CCOCC2)s1 [Example 10, Trifluoroacetic Acid Salt] ?
[reply] > 10 µM

[ask] And the next one, O=C(Nc1cc(Nc2ccccc2CO)c2c(=O)[nH]ccc2n1)C1CC1 [Example 23, Trifluoroacetic Acid Salt] ?
[reply] 1 to 10 µM

[ask] And the next one, O=C(Nc1cc(Nc2ccccc2OC2CC2)c2c(=O)[nH]ccc2n1)C1CC1 [Example 24, Trifluoroacetic Acid Salt] ?
[reply] 1 to 10 µM

[ask] And the next one, COc1c(Nc2cc(NC(=O)C3CC3)nc3cc[nH]c(=O)c23)cccc1C(F)(F)F [Example 14, Trifluoroacetic Acid Salt] ?
[reply] > 10 µM
